Quick record: IC50, Dihydrofolate reductase (Homo sapiens).
All answers are understood in nM, so give the number only.

**Q:** Which IC50 is reported with Dihydrofolate reductase (Homo sapiens) for this entry: CCc1sc2nc(N)[nH]c(=O)c2c1Sc1cc(OC)ccc1OC ?
**A:** 840

**Q:** Then CCc1sc2nc(N)[nH]c(=O)c2c1Sc1ccc(Cl)c(Cl)c1 ?
**A:** 290

**Q:** Then CCc1sc2nc(N)[nH]c(=O)c2c1Sc1ccc(F)cc1 ?
**A:** 620

**Q:** Then CCc1sc2nc(N)[nH]c(=O)c2c1Sc1ccncc1 ?
**A:** 350
